For each entry below, report its GI50 value.
# System: SN12C
# PROTOCOL_NOTES: NCI tumour cell line growth inhibition, 48 h
The source made the active and inactive calls. Cut-off read from the data, not from the text of the source: active = GI50 up to about 1.1 µM and inactive = higher.

Qu. Entry C/C(=N\NC(=O)C[n+]1ccccc1)c1sc(-c2nc(C)c(/C(C)=N/NC(=O)C[n+]3ccccc3)s2)nc1C : reported GI50 = ?
Ans. > 100 µM (inactive)

Qu. Entry Oc1cc(-c2ccc[nH]2)nc2cc3c(cc12)OCO3 : reported GI50 = ?
Ans. 49 µM (inactive)

Qu. Entry COC(=O)c1c(OC(=O)c2ccccc2)noc1CC(=O)OC1C=CCCC1 (stereo not given) : reported GI50 = ?
Ans. > 100 µM (inactive)

Qu. Entry O=P(Nc1ccccc1)(Oc1ccccc1)N1CCN(c2ccccc2)CC1 (stereo not given) : reported GI50 = ?
Ans. 17.8 µM (inactive)

Qu. Entry COc1ccc(C2C(C)C(=O)C(C)C(c3ccc(OC)cc3)N2N=O)cc1 (stereo not given) : reported GI50 = ?
Ans. 530 µM (inactive)

Qu. Entry CC(C(=O)c1ccccc1)C1(O)C(=O)Nc2ccccc21 (stereo not given) : reported GI50 = ?
Ans. > 100 µM (inactive)

Qu. Entry O=C1C(NS(=O)(=O)c2ccccc2)=C(n2cnc3ccccc32)C(=O)c2ccccc21 : reported GI50 = ?
Ans. > 100 µM (inactive)

Qu. Entry O=[N+]([O-])c1ccc2ncccc2c1CCc1c([N+](=O)[O-])ccc2ncccc12 : reported GI50 = ?
Ans. > 100 µM (inactive)

Qu. Entry COc1cc(C2(c3ncc[nH]3)SSSCC2O)ccc1O (stereo not given) : reported GI50 = ?
Ans. 47.8 µM (inactive)

Qu. Entry Cc1c(C(=O)CSc2nc3ccccc3[nH]2)c(=O)n(-c2ccccc2)n1C : reported GI50 = ?
Ans. > 100 µM (inactive)

###

# System: MCF7
# PROTOCOL_NOTES: NCI tumour cell line growth inhibition, 48 h
The source made the active and inactive calls. No stated cut-off is given here; in the data, active = GI50 up to about 1.1 µM and inactive = higher.
Result category, one only: true for active, false for inactive

Qu. # outcome recorded in this test, key = CC(c1ccccc1)n1c2ccccc2c2c(N)ncnc21 (stereo not drawn)
Ans. false

Qu. # outcome recorded in this test, key = CC(C)=C1CCC(CN2CCOCC2)C1=O (stereo not drawn)
Ans. false

Qu. # outcome recorded in this test, key = CC(/C=N/N=C1NCCCN1)=N\N=C1NCCCN1
Ans. false

Qu. # outcome recorded in this test, key = C=CCN1CCC(c2cc(C(=O)OCC)[nH]c2-c2cc(C)no2)C1=O (stereo not drawn)
Ans. false

Qu. # outcome recorded in this test, key = Cc1ccc(NC(=O)CC(=O)N2N=C(c3ccccc3)C(/N=N/c3ccc(S(=O)(=O)CCOS(=O)(=O)O)cc3)C2=O)cc1 (stereo not drawn)
Ans. false

Qu. # outcome recorded in this test, key = CC(=O)O[C@H]1C(=O)[C@@]2(C)[C@H]([C@H](OC(=O)c3ccccc3)[C@]3(O)C[C@H](OC(=O)[C@H](O)[C@@H](NC(=O)c4ccccc4)c4ccccc4)C(C)=C1C3(C)C)[C@]1(OC(C)=O)CO[C@@H]1C[C@@H]2O
Ans. true

Qu. # outcome recorded in this test, key = O=C(O)c1ccccc1/N=N\c1c(O)c(S(=O)(=O)O)cc2cc(S(=O)(=O)O)ccc12
Ans. false

Qu. # outcome recorded in this test, key = CC(C)(Oc1ccc(Cl)cc1)C(=O)N(C(=O)N1CCN(c2ccccc2)CC1)c1ccccc1
Ans. false

###

# System: LOX IMVI
# PROTOCOL_NOTES: NCI tumour cell line growth inhibition, 48 h
Activity calls are given as the source filed them. Cut-off read from the data, not from the text of the source: active = GI50 up to about 1.1 µM and inactive = higher. Where a SMILES comes first, the peptide text is derived from it. [ ]: non-standard residue; d: D form. The star is where a group is joined. ξ: configuration not given here. ξD = NC(CC(=O)O)C(=O)O; Boc = CC(C)(C)OC(=O)*; Aib = CC(C)(N)C(=O)O; OBn = c1ccc(CO*)cc1
MEASURE_NAME: GI50

Qu. Entry Cc1c2ncccc2cc2oc3ccccc3c(=O)c12 : reported GI50 = ?
Ans. 11.1 µM (inactive)

Qu. Entry C[n+]1c(Cl)cn2c3nc4ccccc4nc3c([O-])c(C#N)c21 : reported GI50 = ?
Ans. > 100 µM (inactive)

Qu. Entry C=C1CC2CC(O)CC(C1)C2 (stereo not drawn) : reported GI50 = ?
Ans. > 100 µM (inactive)

Qu. Entry CC(N/N=N/c1ccc(-c2nc3ccccc3[nH]2)cc1)C(=O)O (stereo not drawn) : reported GI50 = ?
Ans. 28.2 µM (inactive)

Qu. Entry COc1ccc2[nH]c3c(O)c(-c4c(C)cc5c([nH]c6ccc(OC)cc65)c4O)c(C)cc3c2c1 : reported GI50 = ?
Ans. 4.38 µM (inactive)

Qu. Entry Nc1ncnc2c1N=C(c1ccccc1)CC(c1ccccc1)N2 (stereo not drawn) : reported GI50 = ?
Ans. > 100 µM (inactive)

Qu. Entry CC(C)(C)OC(=O)NC(CC(=O)OCc1ccccc1)C(=O)NC(C)(C)C(N)=O (stereo not drawn) (Boc-[ξD](OBn)-[Aib]-NH2) : reported GI50 = ?
Ans. > 100 µM (inactive)

Qu. Entry CC(=O)OCCCCn1cc(Cn2ccc(=O)n(Cc3cn(CCCCOC(C)=O)nn3)c2=O)nn1 : reported GI50 = ?
Ans. > 100 µM (inactive)

###

# Tested on: SR
# PROTOCOL_NOTES: NCI tumour cell line growth inhibition, 48 h
Active and inactive are the calls of the source. Rule as the data show it: active = GI50 up to about 1.1 µM and inactive = higher.
Result category, one only: label 1 (active), label 0 (inactive)

Qu. # outcome recorded in this test, key = CC[C@@H]1CSC(/C=C/C2OC3OC(C)(C)OC3C3OC(C)(C)OC23)=N1 (stereo not given in full)
Ans. label 0

Qu. # outcome recorded in this test, key = C=CCN1CCC(c2cc(C(=O)OCC)[nH]c2-c2cc(C)no2)C1=O (stereo not given)
Ans. label 0

Qu. # outcome recorded in this test, key = Cc1cc2c(cc1N)C(C)C1(CCC(=O)N2Cc2ccccc2)OCCO1 (stereo not given)
Ans. label 0

Qu. # outcome recorded in this test, key = N#Cc1c(-c2ccc(Cl)cc2)c(C#N)c(=O)n(NS(=O)(=O)c2ccccc2)c1S
Ans. label 0

Qu. # outcome recorded in this test, key = Oc1cc(-c2ccc[nH]2)nc2cc3c(cc12)OCO3
Ans. label 0

Qu. # outcome recorded in this test, key = Cc1ccc(C(=O)NCc2ccccc2)cc1/N=N/N(C)C
Ans. label 0

Qu. # outcome recorded in this test, key = CSc1ncnc2c1ncn2CCC(=O)O
Ans. label 0

Qu. # outcome recorded in this test, key = CC1OC(OC2C(O[C@@H]3C[C@@H]4CC[C@@H]5[C@H](CC[C@]6(C)C7C(C[C@@H]56)O[C@]5(CC[C@@H](C)CO5)[C@H]7C)[C@@]4(C)C[C@H]3O)OC(CO)C(O)C2O)C(O)C(O)C1O (stereo not given in full)
Ans. label 0

Qu. # outcome recorded in this test, key = CCOC(=O)CSc1nc2ccccc2c(=O)n1N
Ans. label 0

Qu. # outcome recorded in this test, key = CC1[C@@H](OCc2ccccc2)COC(=O)N1Cc1ccccc1 (stereo not given in full)
Ans. label 0

Qu. # outcome recorded in this test, key = Cc1ccc(C(=O)/C=C(O)/C(O)=C/C(=O)c2ccc(C)cc2C)c(C)c1
Ans. label 0

Qu. # outcome recorded in this test, key = CN(C)c1ccc(/C=C(/NC(=O)c2ccccc2)C(=O)Nc2ccccc2C(=O)O)cc1
Ans. label 0

Qu. # outcome recorded in this test, key = O=[N+]([O-])c1ccc2nc(Nc3ccccc3)c(Nc3ccccc3)nc2c1
Ans. label 1

Qu. # outcome recorded in this test, key = O=C1c2ccccc2C(=O)N1C(=S)c1ccccc1
Ans. label 0

Qu. # outcome recorded in this test, key = O=C1CCCCC[C@]12SC[C@H]1CON=C12
Ans. label 0

Qu. # outcome recorded in this test, key = CCOC(=O)C1=C(C)C2C=C(c3cccs3)CC(c3ccc(Cl)cc3)=C2OC1=O (stereo not given)
Ans. label 0

Qu. # outcome recorded in this test, key = CCCCn1c(C)c(C)c2c1NN=C(C#N)S2(=O)=O
Ans. label 0

Qu. # outcome recorded in this test, key = Cc1cc(-c2c(F)cc3c4nn([C@H]5CC[C@@H](N(C)C)CC5)c(=O)c-4cn(C4CC4)c3c2F)cc(C)n1
Ans. label 1

Qu. # outcome recorded in this test, key = O=C(Cc1ccc(Cl)c(Cl)c1)N(CCc1ccc(Cl)c(Cl)c1)CCN1CCCC1
Ans. label 0

Qu. # outcome recorded in this test, key = S=c1sc2c(Cl)nc(Cl)nc2n1-c1ccccc1
Ans. label 0

Qu. # outcome recorded in this test, key = CN1CCCCC1CCN1c2ccccc2Sc2ccc([S+](C)[O-])cc21 (stereo not given)
Ans. label 0

Qu. # outcome recorded in this test, key = CC1(C)CCCCCC(O)C(O)CCC(C)(C)C1=O (stereo not given)
Ans. label 0

Qu. # outcome recorded in this test, key = OCCCCOC(c1ccccc1)(c1ccccc1)c1ccccc1
Ans. label 0

Qu. # outcome recorded in this test, key = O=C(c1ccncc1)C1C(=O)c2ccccc2C1C1(O)c2ccccc2CC1C(O)c1ccncc1 (stereo not given)
Ans. label 0

Qu. # outcome recorded in this test, key = Cc1cc(N)c2ccccc2[n+]1CCCCCCCCCC[n+]1c(C)cc(N)c2ccccc21 [DEQUALINIUM CHLORIDE]
Ans. label 1

Qu. # outcome recorded in this test, key = Nc1nc(N)c2ncn(CCCC(c3ccccc3)P(=O)(O)O)c2n1 (stereo not given)
Ans. label 0

Qu. # outcome recorded in this test, key = O=[N+]([O-])c1ccc(/C=N/n2c(S)nnc2CCc2nnc(S)n2/N=C/c2ccc([N+](=O)[O-])o2)o1
Ans. label 0

Qu. # outcome recorded in this test, key = CC(=O)OCc1cc(OC(C)=O)c2cc3c(OC(C)=O)cccc3c(OC(C)=O)c2c1
Ans. label 0

Qu. # outcome recorded in this test, key = CC(C)C12C=CC(C)(CC1)n1c(=O)c3cc4ccccc4cc3c(=O)n12 (stereo not given)
Ans. label 0

Qu. # outcome recorded in this test, key = CCN(CC)C(=S)SS(=O)(=O)c1ccc([N+](=O)[O-])cc1
Ans. label 1

Qu. # outcome recorded in this test, key = COc1cc2c(c(OC)c1OC)-c1ccc(SC)c(=O)cc1C(NC(=O)c1ccccc1)CC2 (stereo not given)
Ans. label 1

Qu. # outcome recorded in this test, key = O=C(NCCc1ccccn1)c1ccc2cc(C(=O)N3CC(CCl)c4ccc([N+](=O)[O-])cc43)[nH]c2c1 (stereo not given)
Ans. label 0

Qu. # outcome recorded in this test, key = CC(C)COC(=O)N1N=NC2C3OC(CC3=O)C21 (stereo not given)
Ans. label 0

Qu. # outcome recorded in this test, key = O=C1N/C(=N/N=C\C(O)C(O)C(O)C(O)CO)N/C1=C\c1ccc(Cl)cc1 (stereo not given)
Ans. label 0

Qu. # outcome recorded in this test, key = O=c1[nH]c2ccc(Cl)cc2c2oc(-c3ccccc3)nc12
Ans. label 0

Qu. # outcome recorded in this test, key = O=C1CSC(c2c(O)ccc3ccccc23)N1n1c(S)nnc(/C=C/c2c(O)ccc3ccccc23)c1=O (stereo not given)
Ans. label 1

Qu. # outcome recorded in this test, key = Cn1c(=O)c2nc(N3CCOCC3)cnc2n(C)c1=O
Ans. label 0

Qu. # outcome recorded in this test, key = CC1(C)CC(=O)C(CC2C(=O)c3ccccc3C2=O)C(=O)C1
Ans. label 0

Qu. # outcome recorded in this test, key = COc1cc2ccc1NC(=O)N1CCN(CC1)C(=O)Nc1ccc(cc1OC)-c1ccc(c(OC)c1)NC(=O)N1CCN(CC1)C(=O)Nc1ccc-2cc1OC
Ans. label 0

Qu. # outcome recorded in this test, key = COc1ccc(C2N(c3ccc(C)c(N=C=O)c3)C(=O)N3C(c4ccc(OC)cc4)N(c4ccc(C)c(N=C=O)c4)C(=O)N23)cc1 (stereo not given)
Ans. label 0

Origin of the recorded values: ChEMBL document CHEMBL1201862
